Test system: P. morganii Eb53
protocol-text: Antibacterial spectra, agar dilution method
Type: cell-based
conditions-used: Morganella morganii; P. morganii Eb53; agar dilution method; Table 11; read-out: Antibacterial spectra
Field: MIC. Provide a value for each of the compounds that follow.
Express the result in µg/mL but write the number alone.

Query string: Identify MIC associated with the compound CSCc1nnc(SCC2=C(C(=O)O)N3C(=O)C(NC(=O)Cc4csc(N)n4)C3SC2)s1 (stereo not shown)
Result string: 25

Query string: Supply reported MIC belonging to this compound: Nc1nc(CC(=O)NC2C(=O)N3C(C(=O)O)=C(CSc4nnc(SCC(=O)O)s4)CSC23)cs1 (stereo not shown)
Result string: 3.13

Query string: Give the measured MIC for Nc1nc(CC(=O)NC2C(=O)N3C(C(=O)O)=C(CSc4nnc(SCCS(=O)(=O)O)s4)CSC23)cs1 (stereo not shown)
Result string: 25

Query string: Determine its reported MIC: Nc1nc(CC(=O)NC2C(=O)N3C(C(=O)O)=C(CSc4nnc(N)s4)CSC23)cs1 (stereo not shown)
Result string: 50

Query string: Retrieve MIC measured for Cc1nnc(SCC2=C(C(=O)O)N3C(=O)C(NC(=O)Cc4csc(N)n4)C3SC2)o1 (stereo not shown) and print it.
Result string: 25

Query string: Answer with the recorded MIC of Cc1nnc(SCC2=C(C(=O)O)N3C(=O)[C@@H](NC(=O)Cn4cnnn4)[C@H]3SC2)s1 [Cephazolin, reference compound] only.
Result string: 100

Query string: Fill in reported MIC for this entry: Cc1cnc(SCC2=C(C(=O)O)N3C(=O)C(NC(=O)Cc4csc(N)n4)C3SC2)nc1N (stereo not shown)
Result string: 100

Query string: Specify reported MIC for the compound shown: CC(=O)CSc1nnc(SCC2=C(C(=O)O)N3C(=O)C(NC(=O)Cc4csc(N)n4)C3SC2)s1 (stereo not shown)
Result string: 3.13

Query string: Supply reported MIC belonging to this compound: CS(=O)(=O)Cc1nnc(SCC2=C(C(=O)O)N3C(=O)C(NC(=O)Cc4csc(N)n4)C3SC2)s1 (stereo not shown)
Result string: 25

Query string: Consider the compound Nc1nc(CC(=O)NC2C(=O)N3C(C(=O)O)=C(CSc4nc(CC(=O)O)cs4)CSC23)cs1 (stereo not shown) and give its recorded MIC.
Result string: 50

Query string: Entry Cn1cnnc1SCC1=C(C(=O)O)N2C(=O)C(NC(=O)Cc3csc(N)n3)C2SC1 (stereo not shown) needs its MIC filled in; supply it.
Result string: 25

Query string: Provide measured MIC value, entry: Nc1nc(CC(=O)NC2C(=O)N3C(C(=O)O)=C(CSc4nnc[nH]4)CSC23)cs1 (stereo not shown)
Result string: 25
